# tested target: T1, mouse common cytokine receptor γ-chain (IL-2Rγ) (mouse, UniProt P34902 23-263, limits assumed)
# T1 construct: Recombinant mouse IL-2Rγ protein; also called mo IL-2R; mouse IL-2R gamma
# T1 sequence (looked up): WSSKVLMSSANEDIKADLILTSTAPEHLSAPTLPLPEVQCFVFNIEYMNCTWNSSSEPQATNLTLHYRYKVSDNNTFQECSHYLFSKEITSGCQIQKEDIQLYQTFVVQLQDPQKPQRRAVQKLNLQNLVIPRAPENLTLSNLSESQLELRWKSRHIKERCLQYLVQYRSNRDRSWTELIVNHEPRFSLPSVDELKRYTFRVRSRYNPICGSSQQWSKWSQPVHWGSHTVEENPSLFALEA
# protocol text: P.E. binding ELISA

>  <binder>
FJ1427_P035MP07C05 (VHH, tested as periplasmic extract; also called Clone nr; 611) VHH: EVQLVESGGGLVQPGGSLRLSCAASGRALSRLAMGWFRQAPGKEREFVVASSWGDDTFYADSVKGRFTFSRDNAKNTVYLQMNSLQPGDTAVYYCAAAPTSFATTAYSSSNSYAYWGQGTQVTVSS

>  <scale unit>
OD450 nm

>  <PE binding ELISA OD>
0.047

$$$$
>  <binder>
FJ1427_P035MP07C08 (VHH, tested as periplasmic extract; also called Clone nr; 635) VHH: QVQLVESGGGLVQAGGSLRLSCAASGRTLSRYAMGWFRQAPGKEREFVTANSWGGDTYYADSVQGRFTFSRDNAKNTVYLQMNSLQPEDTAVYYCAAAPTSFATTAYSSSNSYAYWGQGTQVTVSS

>  <scale unit>
OD450 nm

>  <PE binding ELISA OD>
0.049

$$$$
